# System: MCF7 complex spheroid growth, % test/control
# Assay protocol: Anticancer human tumor MCF7 cell line growth inhibition [Asc]; active means viability on the fitted dose curve at most 10% of control; inactive means the rest;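 further: spheroids exposed to compounds for 7 days; 100% = DMSO vehicle control wells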
# Stated conditions: second compound 0.01 µM; first compound 1 µM
Outcomes: y for active, n for inactive

[[record]]
compound = "O=C(c1ccc(F)c(F)c1Nc1ccc(I)cc1F)N1CC(O)([C@@H]2CCCCN2)C1 + CNC(C)C(=O)NC1CN(S(=O)(=O)c2cccc(S(=O)(=O)N3CCC4CCC(C(=O)NC(c5ccccc5)c5ccccc5)N4C(=O)C(NC(=O)C(C)NC)C3)c2)CCC2CCC(C(=O)NC(c3ccccc3)c3ccccc3)N2C1=O"
assigned_label = "n"

[[record]]
compound = "COc1c(OCCCN2CCOCC2)ccc2c3n(c(=NC(=O)c4cnc(N)nc4)nc12)CCN3 + CNC(C)C(=O)NC1CN(S(=O)(=O)c2cccc(S(=O)(=O)N3CCC4CCC(C(=O)NC(c5ccccc5)c5ccccc5)N4C(=O)C(NC(=O)C(C)NC)C3)c2)CCC2CCC(C(=O)NC(c3ccccc3)c3ccccc3)N2C1=O"
assigned_label = "y"

[[record]]
compound = "C=C(F)C(=O)N1CCN(c2nc(OCC3CCCN3C)nc3c2CCN(c2cccc4cccc(Cl)c24)C3)CC1CC#N (configuration not stated) + CNC(C)C(=O)NC1CN(S(=O)(=O)c2cccc(S(=O)(=O)N3CCC4CCC(C(=O)NC(c5ccccc5)c5ccccc5)N4C(=O)C(NC(=O)C(C)NC)C3)c2)CCC2CCC(C(=O)NC(c3ccccc3)c3ccccc3)N2C1=O"
assigned_label = "y"

[[record]]
compound = "CCN1CCN(Cc2ccc(Nc3ncc(F)c(-c4cc(F)c5nc(C)n(C(C)C)c5c4)n3)nc2)CC1 + CNC(C)C(=O)NC1CN(S(=O)(=O)c2cccc(S(=O)(=O)N3CCC4CCC(C(=O)NC(c5ccccc5)c5ccccc5)N4C(=O)C(NC(=O)C(C)NC)C3)c2)CCC2CCC(C(=O)NC(c3ccccc3)c3ccccc3)N2C1=O"
assigned_label = "n"

[[record]]
compound = "C=CC(=O)N1CCN(c2nc(=O)n(-c3c(C)ccnc3C(C)C)c3nc(-c4c(O)cccc4F)c(F)cc23)C(C)C1 (configuration not stated) + CNC(C)C(=O)NC1CN(S(=O)(=O)c2cccc(S(=O)(=O)N3CCC4CCC(C(=O)NC(c5ccccc5)c5ccccc5)N4C(=O)C(NC(=O)C(C)NC)C3)c2)CCC2CCC(C(=O)NC(c3ccccc3)c3ccccc3)N2C1=O"
assigned_label = "n"

[[record]]
compound = "C#Cc1c(F)ccc2cc(O)cc(-c3ncc4c(N5CC6CCC(C5)N6)nc(OCC56CCCN5CC(F)C6)nc4c3F)c12 (configuration not stated) + CNC(C)C(=O)NC1CN(S(=O)(=O)c2cccc(S(=O)(=O)N3CCC4CCC(C(=O)NC(c5ccccc5)c5ccccc5)N4C(=O)C(NC(=O)C(C)NC)C3)c2)CCC2CCC(C(=O)NC(c3ccccc3)c3ccccc3)N2C1=O"
assigned_label = "y"

[[record]]
compound = "O=C(c1cc(Cc2n[nH]c(=O)c3ccccc23)ccc1F)N1CCN(C(=O)C2CC2)CC1 + CNC(C)C(=O)NC1CN(S(=O)(=O)c2cccc(S(=O)(=O)N3CCC4CCC(C(=O)NC(c5ccccc5)c5ccccc5)N4C(=O)C(NC(=O)C(C)NC)C3)c2)CCC2CCC(C(=O)NC(c3ccccc3)c3ccccc3)N2C1=O"
assigned_label = "n"


* * *

# Test system: MCF7 complex spheroid growth, % test/control
# Assay protocol: Anticancer human tumor MCF7 cell line growth inhibition [Asc]; active = viability on the fitted dose curve at most 10% of control; inactive = the rest;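 further: spheroids exposed to compounds for 7 days; 100% = DMSO vehicle control wells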
# Stated conditions: second compound 3 µM; first compound 0.316 µM
# From the text: Multicellular complex tumor spheroid response to apoptosis pathway targeting inhibitors Alrizomadlin, Pelcitoclax, and Dasminapant in combination with a variety of drugs and investigational agents in selected tumor cell lines […] Compounds. […] If the clinical Cmax for an agent had not been determined, the highest concentration tested was 10 microM. […]
Outcomes: true for active, false for inactive

[[record]]
compound = "CCN1CCN(Cc2ccc(Nc3ncc(F)c(-c4cc(F)c5nc(C)n(C(C)C)c5c4)n3)nc2)CC1 + CCN1C(C(=O)NC23CCC(C(=O)O)(CC2)CC3)C(c2cccc(Cl)c2F)C2(C(=O)Nc3cc(Cl)ccc32)C12CCCCC2"
assigned_label = "false"

[[record]]
compound = "O=C(c1ccc(F)c(F)c1Nc1ccc(I)cc1F)N1CC(O)([C@@H]2CCCCN2)C1 + CCN1C(C(=O)NC23CCC(C(=O)O)(CC2)CC3)C(c2cccc(Cl)c2F)C2(C(=O)Nc3cc(Cl)ccc32)C12CCCCC2"
assigned_label = "false"

[[record]]
compound = "O=C(c1cc(Cc2n[nH]c(=O)c3ccccc23)ccc1F)N1CCN(C(=O)C2CC2)CC1 + CCN1C(C(=O)NC23CCC(C(=O)O)(CC2)CC3)C(c2cccc(Cl)c2F)C2(C(=O)Nc3cc(Cl)ccc32)C12CCCCC2"
assigned_label = "false"

[[record]]
compound = "C=CC(=O)N1CCN(c2nc(=O)n(-c3c(C)ccnc3C(C)C)c3nc(-c4c(O)cccc4F)c(F)cc23)C(C)C1 (stereo not drawn) + CCN1C(C(=O)NC23CCC(C(=O)O)(CC2)CC3)C(c2cccc(Cl)c2F)C2(C(=O)Nc3cc(Cl)ccc32)C12CCCCC2"
assigned_label = "false"

[[record]]
compound = "CNC(C)C(=O)NC1CN(S(=O)(=O)c2cccc(S(=O)(=O)N3CCC4CCC(C(=O)NC(c5ccccc5)c5ccccc5)N4C(=O)C(NC(=O)C(C)NC)C3)c2)CCC2CCC(C(=O)NC(c3ccccc3)c3ccccc3)N2C1=O (stereo not drawn) + CCN1C(C(=O)NC23CCC(C(=O)O)(CC2)CC3)C(c2cccc(Cl)c2F)C2(C(=O)Nc3cc(Cl)ccc32)C12CCCCC2"
assigned_label = "false"

[[record]]
compound = "C#Cc1c(F)ccc2cc(O)cc(-c3ncc4c(N5CC6CCC(C5)N6)nc(OCC56CCCN5CC(F)C6)nc4c3F)c12 (stereo not drawn) + CCN1C(C(=O)NC23CCC(C(=O)O)(CC2)CC3)C(c2cccc(Cl)c2F)C2(C(=O)Nc3cc(Cl)ccc32)C12CCCCC2"
assigned_label = "false"

[[record]]
compound = "COc1c(OCCCN2CCOCC2)ccc2c3n(c(=NC(=O)c4cnc(N)nc4)nc12)CCN3 + CCN1C(C(=O)NC23CCC(C(=O)O)(CC2)CC3)C(c2cccc(Cl)c2F)C2(C(=O)Nc3cc(Cl)ccc32)C12CCCCC2"
assigned_label = "true"

[[record]]
compound = "C=C(F)C(=O)N1CCN(c2nc(OCC3CCCN3C)nc3c2CCN(c2cccc4cccc(Cl)c24)C3)CC1CC#N (stereo not drawn) + CCN1C(C(=O)NC23CCC(C(=O)O)(CC2)CC3)C(c2cccc(Cl)c2F)C2(C(=O)Nc3cc(Cl)ccc32)C12CCCCC2"
assigned_label = "false"


* * *

# Test system: MCF7 complex spheroid growth, % test/control
# Assay protocol: Anticancer human tumor MCF7 cell line growth inhibition [Asc]; active means viability on the fitted dose curve at most 10% of control; inactive means the rest;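 further: spheroids exposed to compounds for 7 days; 100% = DMSO vehicle control wells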
# Stated conditions: second compound 0.0316 µM; first compound 3.16 µM
Outcomes: active, inactive

[[record]]
compound = "C=CC(=O)N1CCN(c2nc(=O)n(-c3c(C)ccnc3C(C)C)c3nc(-c4c(O)cccc4F)c(F)cc23)C(C)C1 (stereo not drawn) + CNC(C)C(=O)NC1CN(S(=O)(=O)c2cccc(S(=O)(=O)N3CCC4CCC(C(=O)NC(c5ccccc5)c5ccccc5)N4C(=O)C(NC(=O)C(C)NC)C3)c2)CCC2CCC(C(=O)NC(c3ccccc3)c3ccccc3)N2C1=O"
assigned_label = "inactive"

[[record]]
compound = "C=C(F)C(=O)N1CCN(c2nc(OCC3CCCN3C)nc3c2CCN(c2cccc4cccc(Cl)c24)C3)CC1CC#N (stereo not drawn) + CNC(C)C(=O)NC1CN(S(=O)(=O)c2cccc(S(=O)(=O)N3CCC4CCC(C(=O)NC(c5ccccc5)c5ccccc5)N4C(=O)C(NC(=O)C(C)NC)C3)c2)CCC2CCC(C(=O)NC(c3ccccc3)c3ccccc3)N2C1=O"
assigned_label = "active"

[[record]]
compound = "C#Cc1c(F)ccc2cc(O)cc(-c3ncc4c(N5CC6CCC(C5)N6)nc(OCC56CCCN5CC(F)C6)nc4c3F)c12 (stereo not drawn) + Cc1c(S(C)(=O)=O)c(-c2cc(F)cc(N3CCN(c4ccc(NS(=O)(=O)c5ccc(NC(CCN6CCC(C(=O)OCCCP(=O)(O)O)CC6)CSc6ccccc6)c(S(=O)(=O)C(F)(F)F)c5)cc4)CC3)c2)c(-c2ccc(Cl)cc2)n1C(C)C"
assigned_label = "inactive"


* * *

# System: MCF7 complex spheroid growth, % test/control
# Assay protocol: Anticancer human tumor MCF7 cell line growth inhibition [Asc];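 further: spheroids exposed to compounds for 7 days; 100% = DMSO vehicle control wells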
# Stated conditions: second compound 0.1 µM; first compound 0.03 µM; hits give low values
Experimental readout: viability, T/C (%)

[[record]]
compound = "Cc1nc(N2CCC3(CC2)COC(C)C3N)c(CO)nc1Sc1ccnc(N)c1Cl (stereo not drawn) + Cc1c(S(C)(=O)=O)c(-c2cc(F)cc(N3CCN(c4ccc(NS(=O)(=O)c5ccc(NC(CCN6CCC(C(=O)OCCCP(=O)(O)O)CC6)CSc6ccccc6)c(S(=O)(=O)C(F)(F)F)c5)cc4)CC3)c2)c(-c2ccc(Cl)cc2)n1C(C)C"
assay_system = "MCF7 complex spheroid growth, % test/control"
obs_value = 79.7

[[record]]
compound = "CCN1C(C(=O)NC23CCC(C(=O)O)(CC2)CC3)C(c2cccc(Cl)c2F)C2(C(=O)Nc3cc(Cl)ccc32)C12CCCCC2 (stereo not drawn) + CNC(C)C(=O)NC1CN(S(=O)(=O)c2cccc(S(=O)(=O)N3CCC4CCC(C(=O)NC(c5ccccc5)c5ccccc5)N4C(=O)C(NC(=O)C(C)NC)C3)c2)CCC2CCC(C(=O)NC(c3ccccc3)c3ccccc3)N2C1=O"
assay_system = "MCF7 complex spheroid growth, % test/control"
obs_value = 10.7

[[record]]
compound = "CCN1C(C(=O)NC23CCC(C(=O)O)(CC2)CC3)C(c2cccc(Cl)c2F)C2(C(=O)Nc3cc(Cl)ccc32)C12CCCCC2 (stereo not drawn) + Cc1c(S(C)(=O)=O)c(-c2cc(F)cc(N3CCN(c4ccc(NS(=O)(=O)c5ccc(NC(CCN6CCC(C(=O)OCCCP(=O)(O)O)CC6)CSc6ccccc6)c(S(=O)(=O)C(F)(F)F)c5)cc4)CC3)c2)c(-c2ccc(Cl)cc2)n1C(C)C"
assay_system = "MCF7 complex spheroid growth, % test/control"
obs_value = 93.7

